Known EC50 hGLP-1R (cAMP) of a selection of binders
# target.under.test: human GLP-1 receptor (human, UniProt P43220 24-463)
# test.protocol: cell-based or functional assay
Numbered stars: 1 amine (or outer) side, 2 acyl side, 3 side chain; on linkers, the order of the positions; unused ones are H or OH. Side chains are listed from the residue outwards. Ends that are not written are not given here. γGlu = O=C(O)[C@H](CCC(=O)[*:2])N[*:1]; x53 = not defined here
Quick reminder: number only, in pM, skip the unit.

The cases that follow already have their EC50 hGLP-1R (cAMP) on record.
| binder | unit.info | reported.result |
| --- | --- | --- |
| HXQGTFTSDLSKQKDSRRAQDFIEWLKNTGPSSGAPPPS (dSer at 2; K(γE-x53) at 14; C-terminal NH2) [SEQ ID NO: 92] | pM | 26 |
| HXQGTFTSDLSKQKDSKAAQDFIEWLKAGGPSSGAPPPS (dSer at 2; K(γE-X95) at 14; C-terminal NH2) [SEQ ID NO: 142] | pM | 4.1 |

# evaluate next
Provide only the value of recorded EC50 hGLP-1R (cAMP) for HSHGTFTSDLSKQK([γGlu-x53])ESRRAQDFIEWLKAGGPSSGAPPPS-NH2 (reading uncertain) [SEQ ID NO: 208]
2
